experimental_parameters: in THF, 306.65 K
outcome_measure: solubility (mole fraction)

### Prompt So what's the measured solubility (mole fraction) for this one? O=c1c2ccccc2sc2ccccc12
### Response 0.0129

====

experimental_parameters: in ethyl acetate, 297.05 K
outcome_measure: solubility (mole fraction)

### Prompt So what's the measured solubility (mole fraction) for this one? O=c1c2ccccc2sc2ccccc12
### Response 0.00319

====

experimental_parameters: in toluene, 322.55 K
outcome_measure: solubility (mole fraction)
In your answer, state the number alone without any accompanying words.

### Prompt So what's the measured solubility (mole fraction) for this one? O=c1c2ccccc2sc2ccccc12
### Response 0.0116

====

experimental_parameters: in n-propanol, 292.15 K
outcome_measure: solubility (mole fraction)
In your answer, state the number alone without any accompanying words.

### Prompt So what's the measured solubility (mole fraction) for this one? O=c1c2ccccc2sc2ccccc12
### Response 0.000546

====

experimental_parameters: in toluene, 311.15 K
outcome_measure: solubility (mole fraction)
In your answer, state the number alone without any accompanying words.

### Prompt So what's the measured solubility (mole fraction) for this one? O=c1c2ccccc2sc2ccccc12
### Response 0.00782

====

experimental_parameters: in methanol, 306.65 K
outcome_measure: solubility (mole fraction)
In your answer, state the number alone without any accompanying words.

### Prompt So what's the measured solubility (mole fraction) for this one? O=c1c2ccccc2sc2ccccc12
### Response 0.000316

====

experimental_parameters: in toluene, 326.55 K
outcome_measure: solubility (mole fraction)
In your answer, state the number alone without any accompanying words.

### Prompt So what's the measured solubility (mole fraction) for this one? O=c1c2ccccc2sc2ccccc12
### Response 0.0134

====

experimental_parameters: in acetonitrile, 319.35 K
outcome_measure: solubility (mole fraction)
In your answer, state the number alone without any accompanying words.

### Prompt So what's the measured solubility (mole fraction) for this one? O=c1c2ccccc2sc2ccccc12
### Response 0.00192

====

experimental_parameters: in acetone, 322.55 K
outcome_measure: solubility (mole fraction)
In your answer, state the number alone without any accompanying words.

### Prompt So what's the measured solubility (mole fraction) for this one? O=c1c2ccccc2sc2ccccc12
### Response 0.00492

====

experimental_parameters: in THF, 321.25 K
outcome_measure: solubility (mole fraction)
In your answer, state the number alone without any accompanying words.

### Prompt So what's the measured solubility (mole fraction) for this one? O=c1c2ccccc2sc2ccccc12
### Response 0.0189

====

experimental_parameters: in acetone, 319.35 K
outcome_measure: solubility (mole fraction)
In your answer, state the number alone without any accompanying words.

### Prompt So what's the measured solubility (mole fraction) for this one? O=c1c2ccccc2sc2ccccc12
### Response 0.00456

====

experimental_parameters: in acetone, 292.15 K
outcome_measure: solubility (mole fraction)
In your answer, state the number alone without any accompanying words.

### Prompt So what's the measured solubility (mole fraction) for this one? O=c1c2ccccc2sc2ccccc12
### Response 0.00191

====

experimental_parameters: in THF, 297.05 K
outcome_measure: solubility (mole fraction)
In your answer, state the number alone without any accompanying words.

### Prompt So what's the measured solubility (mole fraction) for this one? O=c1c2ccccc2sc2ccccc12
### Response 0.0101

====

experimental_parameters: in isopropanol, 305.05 K
outcome_measure: solubility (mole fraction)
In your answer, state the number alone without any accompanying words.

### Prompt So what's the measured solubility (mole fraction) for this one? O=c1c2ccccc2sc2ccccc12
### Response 0.000877

====

experimental_parameters: in ethanol, 292.15 K
outcome_measure: solubility (mole fraction)

### Prompt So what's the measured solubility (mole fraction) for this one? O=c1c2ccccc2sc2ccccc12
### Response 0.000194

====

experimental_parameters: in n-propanol, 331.55 K
outcome_measure: solubility (mole fraction)

### Prompt So what's the measured solubility (mole fraction) for this one? O=c1c2ccccc2sc2ccccc12
### Response 0.00251

====

experimental_parameters: in toluene, 331.55 K
outcome_measure: solubility (mole fraction)

### Prompt So what's the measured solubility (mole fraction) for this one? O=c1c2ccccc2sc2ccccc12
### Response 0.0158

====

experimental_parameters: in 1,4-dioxane, 316.85 K
outcome_measure: solubility (mole fraction)
In your answer, state the number alone without any accompanying words.

### Prompt So what's the measured solubility (mole fraction) for this one? O=c1c2ccccc2sc2ccccc12
### Response 0.0141

====

experimental_parameters: in 2-butanone, 297.05 K
outcome_measure: solubility (mole fraction)
In your answer, state the number alone without any accompanying words.

### Prompt So what's the measured solubility (mole fraction) for this one? O=c1c2ccccc2sc2ccccc12
### Response 0.00398

====

experimental_parameters: in isopropanol, 335.95 K
outcome_measure: solubility (mole fraction)
In your answer, state the number alone without any accompanying words.

### Prompt So what's the measured solubility (mole fraction) for this one? O=c1c2ccccc2sc2ccccc12
### Response 0.00461

====

experimental_parameters: in THF, 292.15 K
outcome_measure: solubility (mole fraction)

### Prompt So what's the measured solubility (mole fraction) for this one? O=c1c2ccccc2sc2ccccc12
### Response 0.00867

====

experimental_parameters: in ethanol, 335.95 K
outcome_measure: solubility (mole fraction)
In your answer, state the number alone without any accompanying words.

### Prompt So what's the measured solubility (mole fraction) for this one? O=c1c2ccccc2sc2ccccc12
### Response 0.00452
